- Tested on: phospholipidosis (PLD)
- TEST_SUMMARY: in vitro PLD screen
- Format: cell-based
- RECORDED_CONDITIONS: read-out: EC50 (phospholipogenic, in vitro)
pEC50: −log10 of the molar value.
REPORTED_ENDPOINT: pEC50

{"COMPOUND": "CCN(CC)CCCC(C)Nc1ccnc2cc(Cl)ccc12 (centres unmarked) [chloroquine]", "pEC50": "> 4.70"}

Query compound follows.
In: So what's the measured pEC50 for this one? C1CCC(C(CC2CCCCN2)C2CCCCC2)CC1 (centres unmarked) [perhexiline]
Out: > 4.70

Source listed as paper PMC4000071.
